Reported IC50 by item:
target: S. Agalactiae DltA (Streptococcus agalactiae serotype III (strain NEM316)); experiment: in vitro DltA activity assay (luminescence), S. agalactiae DltA; assay type: biochemical; settings: recombinant DltA, 30 min pre-incubation, 0.5 mM D-Alanine, 0.5-5 μM ATP; read-out: S. Agalactiae DltA IC50
Hi! Could you send only the number? It should be in µM, unit omitted.

// worked examples, IC50 included
CN(C)CCOc1cc(-c2cnc3c(c2)CCCO3)c2nc[nH]c2c1C(N)=O :: 0.48
c1nc2c(-c3ccc4c(c3)ncn4C3CCCCC3)cc(N3CC4CNCC4C3)cc2[nH]1 (stereo not shown) :: 3.8
CN(C)CC1CCCN1c1cc(-c2ccc3c(c2)ncn3C2CCCCC2)c2nc[nH]c2c1C(N)=O (stereo not shown) :: 1.8
CN1CCC[C@@H]1COc1cc(-c2ccc3c(c2)ncn3C2CCCCC2)c2nc[nH]c2c1C(N)=O :: 0.091
NC(=O)c1c(N2CCC(CCO)C2)cc(-c2ccc3c(c2)ncn3C2CCCCC2)c2nc[nH]c12 (stereo not shown) :: 1.3

// returns reported IC50 for input c1nc2c(-c3ccc4c(c3)ncn4C3CCCCC3)nc(N3CC4CNCC4C3)cc2[nH]1 (stereo not shown)
5.2
